observable: melting point

compound	melting point
COC(=O)C(F)=CC1C(C(=O)OC(C#N)c2cccc(Oc3ccccc3)c2)C1(C)C (stereo unspecified)	70 °C
CN1CN(C2CCCC2)CN(c2nc3c(s2)C(=O)CC(C)(C)C3)C1=O	181 to 183 °C
COc1cc(CO)c([N+](=O)[O-])cc1OCCCCCCOC(C)=O	> 220 °C
N=C(N)NCCc1ccc(OCCCC(c2ccccc2)(c2ccccc2)c2ccccc2)cc1	169 to 170 °C
Cn1nc(-c2ccc(F)cc2)c(-c2ccncc2)c1CCCc1ccc(N)cc1	80.5 to 81.1 °C
CCOC(=O)COc1cc(C)c(C)c2c1CCC2=O	100 to 101 °C
COc1ccccc1-c1cccn2nc(Nc3ccc4c(c3)CCN(CCS(C)(=O)=O)CC4)nc12	91 to 94 °C
CCC1(CC)C(=O)Nc2ccc(-c3ccc(C#N)n3C)cc21	233 to 235 °C
Nc1ccc([N+](=O)[O-])c(Cl)c1Cl	170 to 174 °C
COc1ccc(C2CSc3ccccc3N(CCCl)C2=O)cc1 (stereo unspecified)	70 °C

Request the reported melting point associated with "COc1ccc(Cl)cc1CNc1nc(Cl)nc2c1ncn2[C@@H]1SC[C@@H](O)[C@H]1O"
189 to 190 °C

Try this compound next: "OCCSc1nc2ccc(Cc3ccccc3)cc2[nH]1"
108 to 109 °C

Record: "Nc1cccc2c1S(=O)(=O)CC2"
117 to 119 °C

Please do the same for "CC(C)(N)c1ccc(-c2nc(Nc3ccc(-n4ccnc4)cc3)ncc2C#N)cc1" as well.
232 to 233 °C

Would you kindly repeat that for "O=C1C(c2ccccc2)=C(c2ccccc2)C(=O)N1CCc1cccc(F)c1" ?
129 to 130 °C

Also need "CC(=O)Nc1ccc(Sc2c(N)cc(C(=O)O)cc2S(N)(=O)=O)cc1" , thanks.
207 °C

Now the same for "COCOc1c(C)cc(-c2ccc(C(=O)OC)cc2)cc1C"
100 to 101 °C

// query: "Nc1ccc(CO)cc1N"
74 to 75 °C

Let us now turn to "O=S1(=O)CCN2C=CC=C(c3ccc(Oc4ccc(O)cc4)cc3)C2=N1"
289 to 290 °C

Would you kindly repeat that for COc1ccc2[nH]c(S(=O)Cc3c(N)cc(C)c(OC)c3C)nc2c1 (stereo unspecified) ?
149 to 155 °C

Again, but for CCC(C(=O)c1ccc(Cl)cc1)n1ncn(-c2ccc(N3CCN(c4ccc(O)cc4)CC3)cn2)c1=O (stereo unspecified)
186 °C

Param item: "O=C(O)C1CCN(C(=O)c2ccccc2SSc2ccccc2C(=O)N2CCC(C(=O)O)CC2)CC1"
> 250 °C

Now consider "O=C(O)c1ccc(Cl)c2c1OC(F)(F)O2" .
185 °C

Now this one: CCC(=O)COc1ccc(CC2SC(=O)NC2=O)cc1 (stereo unspecified)
142 to 146 °C

Now this one: "CCCCCCc1ccc2c3ccc(CO)cc3n(C)c2c1"
90 to 91 °C
